Reference source for all entries: patent US20050209278A1

system.name: MMP-2 (Homo sapiens)
Construct: made in house; host or cells: MMP-2-transfected p2AHT2 cells
Sequence (P08253 110-660): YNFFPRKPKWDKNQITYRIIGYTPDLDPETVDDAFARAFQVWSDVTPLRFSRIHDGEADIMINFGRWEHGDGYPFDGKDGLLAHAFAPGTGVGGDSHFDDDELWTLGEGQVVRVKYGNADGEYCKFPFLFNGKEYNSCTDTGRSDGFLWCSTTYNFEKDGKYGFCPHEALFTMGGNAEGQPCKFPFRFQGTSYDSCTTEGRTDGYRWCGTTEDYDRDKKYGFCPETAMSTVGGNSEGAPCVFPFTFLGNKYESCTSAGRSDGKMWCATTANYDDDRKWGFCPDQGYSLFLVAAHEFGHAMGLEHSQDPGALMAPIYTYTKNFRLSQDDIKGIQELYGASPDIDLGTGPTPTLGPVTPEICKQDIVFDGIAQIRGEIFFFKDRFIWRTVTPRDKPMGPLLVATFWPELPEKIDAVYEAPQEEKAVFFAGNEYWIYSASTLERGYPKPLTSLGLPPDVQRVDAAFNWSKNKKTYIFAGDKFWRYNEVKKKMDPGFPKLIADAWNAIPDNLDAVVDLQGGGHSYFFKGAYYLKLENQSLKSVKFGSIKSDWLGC
procedure.summary: In vitro MMP inhibition, Ki determination (fluorogenic substrate II)
Format: biochemical
experimental.parameters: value not in parenthesis; read-out: MMP-2 Ki
Ki by entry:
Give me the value, and tack the unit on after it.

Sample answers from the record:
compound	system.name	Ki
O=C(NO)C1(S(=O)(=O)N2CCN(c3ccc(OCCCC(F)(F)F)cn3)CC2)CCOCC1 [Example 83]	MMP-2 (Homo sapiens)	0.251 nM
COCCN1CCC(C(=O)NO)(S(=O)(=O)N2CCN(c3nc4ccccc4o3)CC2)CC1 [Example 196]	MMP-2 (Homo sapiens)	25.1 nM
O=C(NO)C1(S(=O)(=O)N2CCN(c3nncs3)CC2)CCOCC1 [Example 215]	MMP-2 (Homo sapiens)	2370 nM
COCCSc1ccc(N2CCN(S(=O)(=O)C3(C(=O)NO)CCOCC3)CC2)cc1 [Example 227]	MMP-2 (Homo sapiens)	2.47 nM
CC(C)COc1ccc(N2CCN(S(=O)(=O)C3(C(=O)NO)CCOCC3)CC2)cc1Cl [Example 79]	MMP-2 (Homo sapiens)	10.1 nM

Just so you know, measured Ki for CCCCc1ccc(N2CCN(S(=O)(=O)C3(C(=O)NO)CCN(c4cccnc4)CC3)CC2)nc1 [Example 96] came out at 0.2 nM

Just so you know, measured Ki for CCCCOc1ccc(N2CCN(S(=O)(=O)C3(C(=O)NO)CCN(c4cc(C)ccn4)CC3)CC2)cc1 [Example 139] came out at 2.18 nM

Just so you know, measured Ki for CCCCC(=O)c1ccc(N2CCN(S(=O)(=O)C3(C(=O)NO)CCN(CCOC)CC3)CC2)cc1 [Example 177] came out at 2.33 nM

Just so you know, measured Ki for CCCCOc1ccc(N2CCN(S(=O)(=O)C3(C(=O)NO)CCN(C(C)(C)C)CC3)CC2)c(F)c1 [Example 84] came out at 7.53 nM

Just so you know, measured Ki for COc1ccc(N2CCN(S(=O)(=O)C3(C(=O)NO)CCOCC3)CC2)nc1 [Example 108] came out at 431 nM

Just so you know, measured Ki for CCCCOc1ccc(N2CCN(S(=O)(=O)C3(C(=O)NO)Cc4ccccc4C3)CC2)nc1 [Example 85] came out at 0.64 nM

Just so you know, measured Ki for O=C(NO)C1(S(=O)(=O)N2CCN(c3ccc(OC4CCC4)c(F)c3)CC2)CCOCC1 [Example 73] came out at 2.2 nM

Just so you know, measured Ki for CCCCOc1ccc(N2CCN(S(=O)(=O)C3(C(=O)NO)CCS(=O)(=O)CC3)CC2)cc1 [Example 222] came out at 7.88 nM

Just so you know, measured Ki for O=C(NO)C1(S(=O)(=O)N2CCN(c3ccc(OCc4ccccc4)cn3)CC2)CCOCC1 [Example 74] came out at 0.5 nM

Just so you know, measured Ki for CCCCOc1ccc(N2CCN(S(=O)(=O)C3(C(=O)NO)CCOCC3)CC2)cc1 [Example 145] came out at 0.695 nM

Just so you know, measured Ki for O=C(NO)C1(S(=O)(=O)N2CCN(c3ccc(COCC(F)(F)F)cc3)CC2)CCOCC1 [Example 72] came out at 2.44 nM
